# targetOrSystem: Bromodomain-containing protein 7 (Homo sapiens)
# Sequence (Q9NPI1 whole entry, the tested form may be a part): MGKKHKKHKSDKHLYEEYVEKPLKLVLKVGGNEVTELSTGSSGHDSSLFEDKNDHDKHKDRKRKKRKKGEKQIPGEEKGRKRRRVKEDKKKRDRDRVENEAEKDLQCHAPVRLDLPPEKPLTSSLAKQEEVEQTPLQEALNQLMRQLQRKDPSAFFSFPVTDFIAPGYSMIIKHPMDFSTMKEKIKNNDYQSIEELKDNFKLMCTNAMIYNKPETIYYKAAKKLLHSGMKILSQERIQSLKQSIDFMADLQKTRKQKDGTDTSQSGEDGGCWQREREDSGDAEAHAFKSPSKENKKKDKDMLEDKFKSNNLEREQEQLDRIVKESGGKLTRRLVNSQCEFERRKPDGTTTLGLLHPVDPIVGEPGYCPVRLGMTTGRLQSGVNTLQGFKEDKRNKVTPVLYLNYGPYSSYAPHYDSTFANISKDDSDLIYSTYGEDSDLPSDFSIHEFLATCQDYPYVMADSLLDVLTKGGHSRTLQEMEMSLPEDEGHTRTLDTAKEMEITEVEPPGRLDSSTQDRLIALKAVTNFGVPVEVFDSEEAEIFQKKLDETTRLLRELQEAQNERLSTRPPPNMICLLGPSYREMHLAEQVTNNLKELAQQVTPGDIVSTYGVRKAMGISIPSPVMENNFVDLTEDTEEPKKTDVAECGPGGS
# testProtocol: Binding affinity to human partial length BRD7 (L125 to R254 residues) expressed in mammalian expression system by BROMOscan assay
Listed here are compounds together with their documented Ki.
Lab book: enter the figure in nM, no units written.

CCCCc1c(NCc2ccccc2N2CCN(C)CC2)cnn(C)c1=O    501

Data request, read-out Ki, for Cc1c(NCc2ccccc2N2CCN(C)CC2)cnn(C)c1=O
25.1

---

# targetOrSystem: Bromodomain-containing protein 9 (Homo sapiens)
# Sequence (Q9H8M2 whole entry): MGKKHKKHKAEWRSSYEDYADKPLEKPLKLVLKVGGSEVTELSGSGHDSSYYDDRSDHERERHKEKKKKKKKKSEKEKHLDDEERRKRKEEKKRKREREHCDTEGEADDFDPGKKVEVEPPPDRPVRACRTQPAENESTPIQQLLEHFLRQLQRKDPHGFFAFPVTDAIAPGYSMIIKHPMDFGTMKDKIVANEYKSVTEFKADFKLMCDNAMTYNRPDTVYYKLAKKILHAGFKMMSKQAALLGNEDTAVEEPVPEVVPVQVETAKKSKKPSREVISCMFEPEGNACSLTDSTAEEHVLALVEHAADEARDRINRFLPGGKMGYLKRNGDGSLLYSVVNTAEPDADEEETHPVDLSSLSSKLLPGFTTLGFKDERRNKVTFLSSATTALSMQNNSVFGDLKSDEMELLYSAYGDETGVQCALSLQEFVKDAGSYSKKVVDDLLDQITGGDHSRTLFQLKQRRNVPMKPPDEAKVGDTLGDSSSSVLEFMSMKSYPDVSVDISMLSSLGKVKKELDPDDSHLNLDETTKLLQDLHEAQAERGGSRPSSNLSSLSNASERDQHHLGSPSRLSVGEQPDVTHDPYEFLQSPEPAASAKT
quantityMeasured: pKd
Formally, pKd is defined as -log10 of the concentration c, with c in mol/L.

Data request, read-out pKd, for C/C=C/Cn1cc(-c2cc(OC)c(C(=O)N3CCOCC3)cc2OC)c2cc[nH]c2c1=O
8.70
